- Assayed system: Trx-6×His-BCL6 (human BCL6 BTB domain covering amino-acid sequence 5-129) (Homo sapiens)
- Construct: made in house
- Assay summary: HTRF assay (BCL6 / BCOR peptide)
- Type: binding
- Condition details: 1 nM Trx-6×His-BCL6, 300 nM BCOR-AF633 peptide, 2 hours incubation at room temperature; read-out: HTRF avg pIC50 (converted)
Quantity measured: IC50 (µM)

**Q:** Form field: reported IC50 of Cn1c(=O)c2c(c3cc(Nc4nc(N5CCC[C@H]5CO)ncc4Cl)ccc31)N[C@@H](C1CC1)C(F)(F)CO2
**A:** 0.00501

**Q:** GET /values?readout=IC50&item= CC1CC(C(=O)N2CCC2)CN(c2ncc(Cl)c(Nc3ccc4c(c3)c3c(c(=O)n4C)OCC(F)(F)[C@H](C4CC4)N3)n2)C1 (stereo partly shown)
**A:** 0.002

**Q:** Which IC50 is reported for this compound? Cn1c(=O)c2c(c3cc(Nc4nc(N5CC6CCC(C5)N6CC5CC5(F)F)ncc4Cl)ccc31)N[C@@H](C1CC1)C(F)(F)CO2 (stereo partly shown)
**A:** 0.00759

**Q:** # IC50 lookup, item Cn1c(=O)c2c(c3cc(Nc4nc(N5CC(CF)C5)ncc4Cl)ccc31)N[C@@H](C1CC1)C(F)(F)CO2
**A:** 0.00537

**Q:** Looking for the measured IC50 of COC[C@@H]1CCCN1c1ncc(Cl)c(Nc2ccc3c(c2)c2c(c(=O)n3C)OCC(F)(F)[C@H](C3CC3)N2)n1 [Example 12x45a] , can you help?
**A:** 0.0112

(A) Cn1c(=O)c2c(c3cc(Nc4nc(N5C[C@H](F)C[C@H]5CO)ncc4Cl)ccc31)N[C@@H](C1CC1)C(F)(F)CO2 [Example 12x48b]
(B) C[C@H]1CCCN(c2ncc(Cl)c(Nc3ccc4c(c3)c3c(c(=O)n4C)OCC(F)(F)[C@H](C4CC4)N3)n2)C1
**Q:** Given the two records A and B , choose the one whose IC50 value is lower. Answer by stating the label of the chosen item.
**A:** A

(a) Cn1c(=O)c2c(c3cc(Nc4nc(N5C[C@H](F)C[C@H](F)C5)ncc4Cl)ccc31)N[C@@H](C1CC1)C(F)(F)CO2
(b) Cn1c(=O)c2c(c3cc(Nc4nc(N5CCC(F)CC5)ncc4Cl)ccc31)N[C@@H](C1CC1)C(F)(F)CO2
**Q:** Returns: the label, a or b , whose recorded IC50 is the lower number. Kindly give the label for the entry you pick.
**A:** b

(1) Cn1c(=O)c2c(c3cc(Nc4nc(N5CC(C)(O)C5)ncc4Cl)ccc31)N[C@@H](C1CC1)C(F)(F)CO2
(2) Cn1c(=O)c2c(c3cc(Nc4nc(N5CCC(C)(O)C5)ncc4Cl)ccc31)N[C@@H](C1CC1)C(F)(F)CO2 (mixture of isomers) [Example 12a]
**Q:** Choose between 1 and 2 : whose measured IC50 value is numerically larger? Reply with the label of the item you choose.
**A:** 1
(1: 0.0138 µM, 2: 0.00631 µM)
